This collection of values is drawn from patent US20260007758A1.

- Target entity: SST2 (Homo sapiens, UniProt P30874)
- Construct: host or cells: PathHunter CHO-K1 SST2 cells
- Sequence (P30874 whole entry): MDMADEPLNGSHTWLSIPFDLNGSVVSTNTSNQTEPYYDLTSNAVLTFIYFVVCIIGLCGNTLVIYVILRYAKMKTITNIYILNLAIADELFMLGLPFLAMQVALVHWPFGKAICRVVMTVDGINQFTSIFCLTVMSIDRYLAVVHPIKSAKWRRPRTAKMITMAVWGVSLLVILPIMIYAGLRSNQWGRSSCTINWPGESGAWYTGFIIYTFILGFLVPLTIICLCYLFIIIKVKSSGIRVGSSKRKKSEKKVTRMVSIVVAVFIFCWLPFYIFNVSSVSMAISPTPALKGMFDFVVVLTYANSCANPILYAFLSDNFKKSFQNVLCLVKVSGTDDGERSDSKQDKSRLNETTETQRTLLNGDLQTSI
- Test protocol: PathHunter CHO-K1 SST2 Internalization Assay
- Type: cell-based
- Condition summary: PathHunter CHO-K1 SST2 cells; 90 min at 37 C; luminescence; read-out: Internalization EC50
Quantity: pEC50
# pEC50: negative log10 of molar concentration; output just the value

Guide cases for pEC50, answers given:
INSERT INTO measurements (structure_smiles_string, numeric_result) VALUES
  ('CC[C@H](C)[C@@H]([C@@H](CC(=O)N1CCC[C@H]1[C@H](OC)[C@@H](C)C(=O)N[C@H](C)[C@@H](O)c1ccccc1)OC)N(C)C(=O)[C@@H](NC(=O)[C@H](C(C)C)N(C)C(=O)OCc1ccc(NC(=O)[C@H](CCCNC(N)=O)NC(=O)[C@@H](NC(=O)C[C@@H](N)C(=O)NCCOCCC(=O)NCCNc2ncc(-c3cc(C)cc(F)c3)c(N3CCC(N)CC3)c2-c2nc3ccc(Cl)cc3[nH]2)C(C)C)cc1C(=O)N1CC(C(=O)O)C1)C(C)C', 8.51),
  ('CC[C@H](C)[C@@H]([C@@H](CC(=O)N1CCC[C@H]1[C@H](OC)[C@@H](C)C(=O)N[C@H](C)[C@@H](O)c1ccccc1)OC)N(C)C(=O)[C@@H](NC(=O)[C@H](C(C)C)N(C)C(=O)OCc1ccc(NC(=O)[C@H](CCCNC(N)=O)NC(=O)[C@@H](NC(=O)c2cc(NCCOCCC(=O)NCCNc3ncc(-c4cc(C)cc(F)c4)c(N4CCC(N)CC4)c3-c3nc4ccc(Cl)cc4[nH]3)cc(C(=O)NCCS(=O)(=O)O)c2)C(C)C)cc1)C(C)C', 8.43);

Continue with the next molecule.
What does the record list as pEC50 for CC[C@H](C)[C@@H]([C@@H](CC(=O)N1CCC[C@H]1[C@H](OC)[C@@H](C)C(=O)N[C@H](C)[C@@H](O)c1ccccc1)OC)N(C)C(=O)[C@@H](NC(=O)[C@H](C(C)C)N(C)C(=O)OCc1ccc(NC(=O)[C@H](CCCNC(N)=O)NC(=O)[C@@H](NC(=O)CCOCCOCCOCCOCCC(=O)NCCNc2ncc(-c3cc(C)cc(F)c3)c(N3CCC(N)CC3)c2-c2nc3ccc(Cl)cc3[nH]2)C(C)C)cc1C(=O)N1CC(N)C1)C(C)C ?
8.70

---

- Target entity: human somatostatin receptor subtype 2 (Homo sapiens, UniProt P30874)
- Construct: expressed in transfected cells
- Test protocol: Functional assay for SSTR2 agonists (HTRF cAMP)
- Format: cell-based
- Condition summary: CHO-K1 cells stably expressing human SST2; NKH477-stimulated cAMP; 20 min at 37 C; read-out: hSST2 cAMP Avg EC50
pEC50: recorded values
# pEC50: negative log10 of molar concentration; output just the value

INSERT INTO assay_data (compound, quantity, numeric_result) VALUES
  ('CC[C@H](C)[C@@H]([C@@H](CC(=O)N1CCCC1[C@H](OC)[C@@H](C)C(=O)N[C@H](C)[C@@H](O)c1ccccc1)OC)N(C)C(=O)[C@@H](NC(=O)[C@H](C(C)C)N(C)C(=O)OCc1ccc(NC(=O)[C@H](CCCNC(N)=O)NC(=O)[C@@H](NC(=O)[C@H](Cc2c[nH]cn2)NC(=O)CCOCCC(=O)NCCNc2ncc(-c3cc(C)cc(F)c3)c(N3CCC(N)CC3)c2-c2nc3ccc(Cl)cc3[nH]2)C(C)C)c(OCC(=O)O)c1)C(C)C (some centres unmarked) [Compound 202]', 'pEC50', 9.85),
  ('CC[C@H](C)[C@@H]([C@@H](CC(=O)N1CCC[C@H]1[C@H](OC)[C@@H](C)C(=O)N[C@H](C)[C@@H](O)c1ccccc1)OC)N(C)C(=O)[C@@H](NC(=O)[C@H](C(C)C)N(C)C(=O)OCc1ccc(NC(=O)[C@H](CCCNC(N)=O)NC(=O)[C@@H](NC(=O)c2cn(CCOCCC(=O)NCCNc3ncc(-c4cc(C)cc(F)c4)c(N4CCC(N)CC4)c3-c3nc4cc(Cl)ccc4[nH]3)nn2)C(C)C)c(O[C@@H]2O[C@H](C(=O)N3CCNCC3)[C@@H](O)[C@H](O)[C@H]2O)c1)C(C)C [Compound 237]', 'pEC50', 9.82),
  ('CC[C@H](C)[C@@H]([C@@H](CC(=O)N1CCC[C@H]1[C@H](OC)[C@@H](C)C(=O)N[C@H](C)[C@@H](O)c1ccccc1)OC)N(C)C(=O)[C@@H](NC(=O)[C@H](C(C)C)N(C)C(=O)OCc1ccc(NC(=O)[C@H](CCCNC(N)=O)NC(=O)[C@@H](NC(=O)CCOCCC(=O)NCCNc2ncc(-c3cc(C)cc(F)c3)c(N3CCC(N)CC3)c2-c2nc3ccc(Cl)cc3[nH]2)C(C)C)c(C)c1)C(C)C [Compound 9]', 'pEC50', 9.42);

What does the record list as pEC50 for CC[C@H](C)[C@@H]([C@@H](CC(=O)N1CCC[C@H]1[C@H](OC)[C@@H](C)C(=O)N[C@H](C)[C@@H](O)c1ccccc1)OC)N(C)C(=O)[C@@H](NC(=O)[C@H](C(C)C)N(C)C(=O)OCc1ccc(NC(=O)[C@H](CCCNC(N)=O)NC(=O)[C@@H](NC(=O)C[C@@H](N)C(=O)NCCOCCC(=O)NCCNc2ncc(-c3cc(C)cc(F)c3)c(N3CCC(N)CC3)c2-c2nc3ccc(Cl)cc3[nH]2)C(C)C)c(O[C@@H]2O[C@H](C(=O)N[C@@H](CCCCNC(=O)CCCCc3ccc(I)cc3)C(=O)O)[C@@H](O)[C@H](O)[C@H]2O)c1)C(C)C [Compound 211] ?
9.72

What does the record list as pEC50 for CC[C@H](C)[C@@H]([C@@H](CC(=O)N1CCC[C@H]1[C@H](OC)[C@@H](C)C(=O)N[C@H](C)[C@@H](O)c1ccccc1)OC)N(C)C(=O)[C@@H](NC(=O)[C@H](C(C)C)N(C)C(=O)OCc1ccc(NC(=O)[C@H](C)NC(=O)[C@@H](NC(=O)CCOCCC(=O)N(C)CC(=O)NCCNc2ncc(-c3cc(C)cc(F)c3)c(N3CCC(N)CC3)c2-c2nc3ccc(Cl)cc3[nH]2)C(C)C)c(O[C@@H]2O[C@H](C(=O)NCCS(=O)(=O)O)[C@@H](O)[C@H](O)[C@H]2O)c1)C(C)C [Compound 51] ?
10.04

---

pEC50: recorded values
- Target entity: SST2 (Homo sapiens)
- Construct: host or cells: PathHunter CHO-K1 SST2 cells
- Test protocol: PathHunter CHO-K1 SST2 Internalization Assay
- Format: cell-based
- Condition summary: PathHunter CHO-K1 SST2 cells; 90 min at 37 C; luminescence; read-out: Internalization EC50
# pEC50: negative log10 of molar concentration; output just the value

Guide cases for pEC50, answers given:
INSERT INTO assay_data (structure_smiles_string, target_entity, numeric_result) VALUES
  ('CC[C@H](C)[C@@H]([C@@H](CC(=O)N1CCC[C@H]1[C@H](OC)[C@@H](C)C(=O)N[C@H](C)[C@@H](O)c1ccccc1)OC)N(C)C(=O)[C@@H](NC(=O)[C@H](C(C)C)N(C)C(=O)OCc1ccc(NC(=O)[C@H](CCCNC(N)=O)NC(=O)[C@@H](NC(=O)CCOCCC(=O)NCCNc2ncc(-c3cc(C)cc(F)c3)c(N3CCC(N)CC3)c2-c2nc3ccc(Cl)cc3[nH]2)C(C)C)c(O[C@@H]2O[C@H](C(=O)N(C)CC(=O)O)[C@@H](O)[C@H](O)[C@H]2O)c1)C(C)C', 'SST2 (Homo sapiens)', 8.52),
  ('CC[C@H](C)[C@@H]([C@@H](CC(=O)N1CCC[C@H]1[C@H](OC)[C@@H](C)C(=O)N[C@H](C)[C@@H](O)c1ccccc1)OC)N(C)C(=O)[C@@H](NC(=O)[C@H](C(C)C)N(C)C(=O)OCc1ccc(NC(=O)[C@H](CCCNC(N)=O)NC(=O)[C@@H](NC(=O)[C@H](CCC(=O)O)NC(=O)CCOCCOCCOCCOCCC(=O)NCCNc2ncc(-c3cc(C)cc(F)c3)c(N3CCC(N)CC3)c2-c2nc3ccc(Cl)cc3[nH]2)C(C)C)cc1C(=O)O)C(C)C', 'SST2 (Homo sapiens)', 8.17),
  ('CC[C@H](C)[C@@H]([C@@H](CC(=O)N1CCC[C@H]1[C@H](OC)[C@@H](C)C(=O)N[C@H](C)[C@@H](O)c1ccccc1)OC)N(C)C(=O)[C@@H](NC(=O)[C@H](C(C)C)N(C)C(=O)OCc1ccc(NC(=O)[C@H](CCCNC(N)=O)NC(=O)[C@@H](NC(=O)[C@H](CCC(=O)O)NC(=O)CCOCCC(=O)NCCNc2ncc(-c3cc(C)cc(F)c3)c(N3CCC(N)CC3)c2-c2nc3ccc(Cl)cc3[nH]2)C(C)C)c(OC)c1)C(C)C', 'SST2 (Homo sapiens)', 8.11);

Reported pEC50 for SST2 (Homo sapiens), given CC[C@H](C)[C@@H]([C@@H](CC(=O)N1CCC[C@H]1[C@H](OC)[C@@H](C)C(=O)N[C@H](C)[C@@H](O)c1ccccc1)OC)N(C)C(=O)[C@@H](NC(=O)[C@H](C(C)C)N(C)C(=O)OCc1ccc(NC(=O)[C@H](CCCNC(N)=O)NC(=O)[C@@H](NC(=O)[C@H](CCC(=O)O)NC(=O)CCOCCC(=O)NCCNc2ncc(-c3cc(C)cc(F)c3)c(N3CCC(N)CC3)c2-c2nc3ccc(Cl)cc3[nH]2)C(C)C)cc1C(=O)N1CC(N)C1)C(C)C ?
8.60

Reported pEC50 for SST2 (Homo sapiens), given CC[C@H](C)[C@@H]([C@@H](CC(=O)N1CCC[C@H]1[C@H](OC)[C@@H](C)C(=O)N[C@H](C)[C@@H](O)c1ccccc1)OC)N(C)C(=O)[C@@H](NC(=O)[C@H](C(C)C)N(C)C(=O)OCc1ccc(NC(=O)[C@H](CCCNC(N)=O)NC(=O)[C@@H](NC(=O)[C@H](NC(=O)CCOCCC(=O)NCCNc2ncc(-c3cc(C)cc(F)c3)c(N3CCC(N)CC3)c2-c2nc3ccc(Cl)cc3[nH]2)c2cnn(C)c2)C(C)C)c(OCC(=O)O)c1)C(C)C ?
8.04
